- Subject of test: CCR2 (Homo sapiens)
- Construct: Membranes were prepared from THP-1 cells; endogenous in cells
- Procedure details: CCR2 receptor membrane binding assay ([125I]MCP-1, THP-1 cell membranes, SPA beads)
- Condition label: THP-1 membranes, [125I]MCP-1, bound radioactivity determined after 8 h; read-out: hKi
Measured quantity: Ki
Answer by giving the amount and then stating its unit.

Below are worked cases with known answers.
>>> result("COc1nc(C(=O)N2CCC(N[C@@H]3CCOC[C@@H]3OC)CC2)c(C)c(N2CCc3ccc(C(F)(F)F)cc3C2)n1 [Example 69i]")
"4 nM"
>>> result("CO[C@H]1COCC[C@H]1NC1CCN(C(=O)c2nc(C3CC3)nc(N3CCc4ccc(C(F)(F)F)cc4C3)c2C)CC1 [Example 69q]")
"0.7 nM"
>>> result("Cc1c(C(=O)N2CCC(N3CCC(c4cccc(C(=O)O)c4)CC3)CC2)ncnc1N1CCc2ccc(C(F)(F)F)cc2C1")
"698 nM"
>>> result("COC1COCCC1NC1CCN(C(=O)c2ncnc(N3CCC(c4ccc(Cl)cc4)C3)c2C)CC1 (stereo not shown)")
"172 nM"
>>> result("COC1COCCC1NC1CCN(C(=O)c2ncnc(N3CCN(c4ccc5c(c4)OCO5)CC3)c2C)CC1 (stereo not shown) [Example 62q]")
"780 nM"
>>> result("Cc1c(C(=O)N2CCC(N3CCCC3)CC2)ncnc1N1CCc2ccc(C(F)(F)F)cc2C1")
"52 nM"

Challenge: Name the recorded Ki for CO[C@@H]1COCC[C@@H]1NC1CCN(C(=O)c2ncnc(N3CCC4(CCc5cc(Cl)ccc5O4)CC3)c2C)CC1 [Example 62an] .
Response given: 12 nM

====

Some compounds, each annotated with its measured Ki.
- Subject of test: CCR2 (Homo sapiens, UniProt P41597)
- Construct: Membranes were prepared from THP-1 cells; endogenous in cells; host or cells: THP-1 (human acute monocytic leukaemia cells), membrane preparation
- Sequence (P41597 whole entry): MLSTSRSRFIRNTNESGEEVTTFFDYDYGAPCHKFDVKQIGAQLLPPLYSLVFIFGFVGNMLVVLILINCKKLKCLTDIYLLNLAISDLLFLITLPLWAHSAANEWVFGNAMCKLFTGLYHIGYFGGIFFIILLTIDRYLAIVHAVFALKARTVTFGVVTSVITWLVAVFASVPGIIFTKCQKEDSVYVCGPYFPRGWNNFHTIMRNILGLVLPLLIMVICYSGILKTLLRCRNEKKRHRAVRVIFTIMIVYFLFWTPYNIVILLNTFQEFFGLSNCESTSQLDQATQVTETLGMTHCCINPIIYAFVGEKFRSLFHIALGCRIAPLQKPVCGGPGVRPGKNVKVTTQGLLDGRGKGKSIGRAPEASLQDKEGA
- Procedure details: CCR2 receptor membrane binding assay ([125I]MCP-1, THP-1 cell membranes, SPA beads)
- Condition label: THP-1 membranes, [125I]MCP-1, bound radioactivity determined after 8 h; read-out: hKi
Entry rule: numbers only, all in nM.

>>> readout_number("COC1COCCC1NC1CCN(C(=O)c2ncnc(N3CCN(c4ccc(F)c(Cl)c4)CC3)c2C)CC1 (stereo not shown) [Example 62u]")
114
>>> readout_number("COc1c(C(=O)N2CCC(N[C@H]3CCOC[C@H]3OC)CC2)ncnc1N1CCc2ccc(OC(F)(F)F)cc2C1 [Example 69d]")
11
>>> readout_number("Cc1c(C(=O)N2CCC(N[C@H]3CCOC[C@H]3F)CC2)ncnc1N1CCc2ccc(Br)cc2C1 [Example 69ac]")
96

In the following, a different compound is considered.
Challenge: Fill blank: measured Ki of the compound COC1COCCC1NC1CCN(C(=O)c2ncnc(N3CCN(c4ccccc4C(F)(F)F)CC3)c2C)CC1 (stereo not shown) [Example 62z] is ____.
Response given: 30

====

- Subject of test: CCR2 (Homo sapiens, UniProt P41597)
- Construct: Membranes were prepared from THP-1 cells; endogenous in cells
- Procedure details: CCR2 receptor membrane binding assay ([125I]MCP-1, THP-1 cell membranes, SPA beads)
- Condition label: THP-1 membranes, [125I]MCP-1, bound radioactivity determined after 8 h; read-out: hKi
Measured quantity: pKi
Please note pKi is a logarithmic value: minus log10 of concentration in mol/L. Answer with that number alone.

>>> readout_number("COC1COCCC1NC1CCN(C(=O)c2ncnc(N3CCC(c4ccccc4)C3)c2C)CC1 (stereo not drawn)")
6.35

Challenge: State the recorded pKi for this entry: COC1COCCC1NC1CCN(C(=O)c2ncnc(N3CCCC(c4cccc(F)c4)C3)c2C)CC1 (stereo not drawn)
Response given: 5.96

Challenge: If you can, please state the reported pKi value of Cc1c(C(=O)N2CCC(N[C@@H]3CCOC[C@@H]3F)CC2)ncnc1N1CCc2ccc(C(F)(F)F)cc2C1 [Example 69m] .
Response given: 7.80

Challenge: Item COC1COCCC1NC1CCN(C(=O)c2ncnc(N3CCN(c4ccc(Cl)cc4Cl)CC3)c2C)CC1 (stereo not drawn) [Example 62ag] has what recorded pKi?
Response given: 7.40

Challenge: Endpoint output: pKi of `Cc1c(C(=O)N2CCC(N3CCC(N(C)S(C)(=O)=O)CC3)CC2)ncnc1N1CCC(c2cccc(F)c2)CC1` . Value?
Response given: 5.42

Challenge: Sample COC1COCCC1NC1CCN(C(=O)c2ncnc(N3CCc4c(Cl)cccc4C3)c2C)CC1 (stereo not drawn) — what was its pKi?
Response given: 6.77

Challenge: Report pKi for `CO[C@@H]1COCC[C@@H]1NC1CCN(C(=O)c2ncnc(N3CCc4ccc(OC(F)(F)F)cc4C3)c2C)CC1` please.
Response given: 7.80

Challenge: Dear colleague, I am looking for the recorded pKi of the following compound: COC1COCCC1NC1CCN(C(=O)c2ncnc(N3CCc4ccc(C(C)C)cc4C3)c2C)CC1 (stereo not drawn) [Example 62k]
Response given: 7.92

Challenge: Quick one: pKi of Cc1c(C(=O)N2CCC(N3CCC(N(C)S(C)(=O)=O)CC3)CC2)ncnc1N1CCC(c2cccc(C(F)(F)F)c2)C1 (stereo not drawn) ?
Response given: 5.93

Challenge: Param item = COC1COCCC1NC1CCN(C(=O)c2ncnc(N3CCCC(c4ccccc4)CC3)c2C)CC1 (stereo not drawn) [Example 62n] ; retrieve measured pKi.
Response given: 6.72

Challenge: So what does the record say about pKi for `COc1c(C(=O)N2CCC(N[C@@H]3CCOC[C@@H]3OC)CC2)ncnc1N1CCc2ccc(C(F)(F)F)cc2C1` ?
Response given: 7.68

Challenge: Entry under review: COC1COCCC1NC1CCN(C(=O)c2ncnc(N3CCN(c4ccc(Cl)cc4C)CC3)c2C)CC1 (stereo not drawn) [Example 62y] . Reported pKi?
Response given: 7.92

Challenge: # input compound: Cc1c(C(=O)N2CCC(N[C@H]3CCOC[C@H]3F)CC2)ncnc1N1CCc2ccc(C(F)(F)F)cc2C1 [Example 69n] ; wanted: its pKi
Response given: 7.62

Challenge: Look up pKi for this compound: COC1COCCC1NC1CCN(C(=O)c2ncnc(N3CCCC(c4cccc(Cl)c4)C3)c2C)CC1 (stereo not drawn)
Response given: 5.77

Challenge: What pKi value was documented for this compound, `Cc1c(C(=O)N2CCCN(C)CC2)ncnc1N1CCc2ccc(C(F)(F)F)cc2C1` ?
Response given: 5.63

====

- Subject of test: CCR2 (Homo sapiens)
- Construct: Membranes were prepared from THP-1 cells; endogenous in cells
- Procedure details: CCR2 receptor membrane binding assay ([125I]MCP-1, THP-1 cell membranes, SPA beads)
- Condition label: THP-1 membranes, [125I]MCP-1, bound radioactivity determined after 8 h; read-out: hKi
- Procedure: The above exemplary substances have been tested for binding to CCR2 using a binding assay as outlined herein below: THP-1 cells (human acute monocytic leukaemia cells) were cultured under standardized conditions at 37° C. and 5% CO2 in a humidified incubator. […] Perkin Elmer NEX 332 Jod 125 MCP-1, Stock: 2200 Ci/mmol solved in […] assay buffer, stored at −20° C. […] Bound radioactivity was determined by scintillation counter after 8 h. […]
pKi: −log10 of the molar value.
Please enter MET where pKi is greater than or equal to 7, and NOT MET where it is lower.

Answered cases to consult:
>>> category("COC1COCCC1NC1CCN(C(=O)c2ncnc(N3CCC(c4ccccc4Cl)C3)c2C)CC1 (stereo not shown) [Example 62e]")
"NOT MET"
>>> category("COc1c(C(=O)N2CCC(N[C@@H]3CCOC[C@@H]3OC)CC2)ncnc1N1CCc2ccc(OC(F)(F)F)cc2C1 [Example 69c]")
"MET"
>>> category("COC1COCCC1NC1CCN(C(=O)c2ncnc(N3CCN(c4c(Cl)cncc4Cl)CC3)c2C)CC1 (stereo not shown) [Example 62aj]")
"MET"
>>> category("COC1COCCC1NC1CCN(C(=O)c2ncnc(N3CCN(c4cccc(C)c4)CC3)c2C)CC1 (stereo not shown) [Example 62af]")
"NOT MET"
>>> category("Cc1c(C(=O)N2CCC(N3CCC(N(C)S(C)(=O)=O)CC3)CC2)ncnc1N1CCC(c2ccc(C(F)(F)F)cc2)CC1")
"NOT MET"

Now for a further compound.
Challenge: Answer whether pKi of `CO[C@@H]1COCC[C@@H]1N(C)C1CCN(C(=O)c2ncnc(N3CCc4ccc(C(F)(F)F)cc4C3)c2C)CC1` is greater than or equal to 7.
Response given: MET

====

log10(Ki) values for the compounds below.
- Subject of test: CCR2 (Homo sapiens, UniProt P41597)
- Construct: Membranes were prepared from THP-1 cells; endogenous in cells
- Procedure details: CCR2 receptor membrane binding assay ([125I]MCP-1, THP-1 cell membranes, SPA beads)
- Condition label: THP-1 membranes, [125I]MCP-1, bound radioactivity determined after 8 h; read-out: hKi
- Procedure: The above exemplary substances have been tested for binding to CCR2 using a binding assay as outlined herein below: THP-1 cells (human acute monocytic leukaemia cells) were cultured under standardized conditions at 37° C. and 5% CO2 in a humidified incubator. […] Perkin Elmer NEX 332 Jod 125 MCP-1, Stock: 2200 Ci/mmol solved in […] assay buffer, stored at −20° C. […] Bound radioactivity was determined by scintillation counter after 8 h. […]
The figures below represent log10 of Ki, where Ki is stated in nM.

Please review the following examples before continuing.
>>> readout_number("COC1COCCC1NC1CCN(C(=O)c2ncnc(N3CCc4c(Cl)cc(Cl)cc4C3)c2C)CC1 (stereo not drawn)")
1.69
>>> readout_number("COC1COCCC1NC1CCN(C(=O)c2ncnc(N3CCOC(c4ccc(Cl)cc4)C3)c2C)CC1 (stereo not drawn)")
3.04
>>> readout_number("COC1COCCC1NC1CCN(C(=O)c2ncnc(N3CCCN(c4ccccc4C)CC3)c2C)CC1 (stereo not drawn) [Example 62d]")
2.48
>>> readout_number("COC1COCCC1NC1CCN(C(=O)c2ncnc(N3CCCc4ccccc4C3)c2C)CC1 (stereo not drawn)")
3.63
>>> readout_number("COC1COCCC1NC1CCN(C(=O)c2ncnc(N3CCc4ccc(OC(F)(F)F)cc4C3)c2C)CC1 (stereo not drawn)")
1.04
>>> readout_number("Cc1c(C(=O)N2CCC(N3CCC(N(C)S(C)(=O)=O)CC3)CC2)ncnc1N1CCCC(c2ccc(C(F)(F)F)cc2)C1 (stereo not drawn)")
3.63
>>> readout_number("COc1cc(N2CCN(c3ncnc(C(=O)N4CCC(NC5CCOCC5OC)CC4)c3C)CC2)cc(C(F)(F)F)c1 (stereo not drawn) [Example 62ae]")
1.69
>>> readout_number("COc1nc(C(=O)N2CCC(N[C@H]3CCOC[C@H]3OC)CC2)c(C)c(N2CCc3ccc(C(F)(F)F)cc3C2)n1 [Example 69j]")
0.00

Challenge: Recorded log10(Ki) of COC1COCCC1NC1CCN(C(=O)c2ncnc(N3CCn4cc(C(F)(F)F)nc4C3)c2C)CC1 (stereo not drawn) [Example 62ac] , please.
Response given: 3.00

Challenge: Entry COC1COCCC1NC1CCN(C(=O)c2ncnc(N3CCc4ccc(C)cc4C3)c2C)CC1 (stereo not drawn) has what log10(Ki)?
Response given: 1.62

Challenge: Need log10(Ki) of COC1COCCC1NC1CCN(C(=O)c2ncnc(N3CCc4cccc(C(F)(F)F)c4C3)c2C)CC1 (stereo not drawn) , thanks.
Response given: 2.71

Challenge: Find the recorded log10(Ki) belonging to Cc1c(C(=O)N2CCC(N[C@@H]3CCOC[C@@H]3F)CC2)ncnc1N1CCc2ccc(Br)cc2C1 [Example 69ab] and report it.
Response given: 1.57

Challenge: Look up log10(Ki): COC1COCCC1NC1CCN(C(=O)c2ncnc(N3CC4CC4(c4cccc(C(F)(F)F)c4)C3)c2C)CC1 (stereo not drawn) [Example 62b]
Response given: 2.55

Challenge: Name the reported log10(Ki) value associated with the compound COC1COCCC1NC1CCN(C(=O)c2ncnc(N3CCN(c4ncnc5scc(C)c45)CC3)c2C)CC1 (stereo not drawn) [Example 62r]
Response given: 2.61

Challenge: I am curious: what log10(Ki) value has been reported for `CO[C@H]1COCC[C@H]1NC1CCN(C(=O)c2ncnc(N3CCc4ccc(C(F)(F)F)cc4C3)c2C)CC1` ?
Response given: 1.11
